assayed-target: CDA variant Q27/A70 (Homo sapiens, UniProt P32320, K27Q)
Sequence (P32320 whole entry K27Q): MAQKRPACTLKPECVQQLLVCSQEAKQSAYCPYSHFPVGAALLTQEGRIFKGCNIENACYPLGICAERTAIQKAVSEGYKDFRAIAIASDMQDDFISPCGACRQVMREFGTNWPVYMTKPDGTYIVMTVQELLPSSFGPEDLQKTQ
experimental-protocol: Oxidative resistance experiments, Q27/A70 variant
Type: biochemical
assay-context: read-out: K0.5, H2O2
reported-endpoint: IC50

# query: IC50 of entry OO [H2O2, hydrogen peroxide] 15 mM

---

assayed-target: CDA mutant E24Q (Homo sapiens, UniProt P32320, E24Q)
Sequence (P32320 whole entry E24Q): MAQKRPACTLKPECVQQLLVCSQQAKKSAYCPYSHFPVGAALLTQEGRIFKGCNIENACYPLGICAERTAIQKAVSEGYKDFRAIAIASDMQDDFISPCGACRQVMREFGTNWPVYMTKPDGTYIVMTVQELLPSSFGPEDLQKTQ
experimental-protocol: Oxidative resistance experiments, E24Q mutant
Type: biochemical
assay-context: read-out: K0.5, H2O2
reported-endpoint: pIC50
One number for each entry, as −log10 of the molar value.

# query: pIC50 of entry OO [H2O2, hydrogen peroxide] 2.10
